# Test system: Fibroblast
# TEST NAME: Multiplex assay against human fibroblast
# Assay type: toxicity, cell-based
# CONDITIONS: 48 h, 1 µM, compound concentration 1 uM
Listing of recorded Population Hoechst High Intensity Objects (%) by entry.
Number first, unit second: that is the form wanted.

Qu. Could you tell me which Population Hoechst High Intensity Objects (%) is on file for O=C(Nc1ccccc1Br)N[C@@H]1CCN(c2ccc(C(F)(F)F)cn2)C1 ?
Ans. 0%

Qu. What do we get for N#Cc1c(N)nc(SCc2csc(-c3ccc(Cl)cc3)n2)c(C#N)c1-c1ccc(OCCO)cc1 ?
Ans. 2%

Qu. Thanks! And CCCC(CCC)C(=O)O ?
Ans. 7%

Qu. Lookup Cc1sc2c(c1C)C(c1ccc(Cl)cc1)=N[C@H](CC(=O)OC(C)(C)C)c1nnc(C)n1-2
Ans. 5%

Qu. Now give it for COCCNc1cc(NC(=O)N2CCCc3cc(CN4CCOCC4=O)c(C=O)nc32)ncc1C#N too.
Ans. 0%

###

# maps each entry to its Population Pyknosed Nuclei (%)
# System: U2OS
# TEST NAME: Multiplex assay against U2OS
# Assay type: toxicity, cell-based
# CONDITIONS: human, 12 h, 10 µM, compound concentration 10 uM
Non-standard residues stand in square brackets, D forms with d. Residues, ends and D or L forms follow the SMILES beside them.
Number first, unit second.

// known answers, use as guide
[
  {
    "MOLECULE": "CC(C)C[C@@H]1NC(=O)[C@@H](C(C)C)NC(=O)[C@@H]2CCCN2C(=O)[C@@H](CC(=O)O)NC(=O)[C@@H](Cc2c[nH]c3ccccc23)NC1=O [BQ-123] (cyclo(L[dW][dD]P[dV]))",
    "MEASURED PROPERTY": "Population Pyknosed Nuclei (%)",
    "READING": "4%"
  },
  {
    "MOLECULE": "CC(=O)NCCc1c(Cc2ccccc2)[nH]c2ccccc12 [LUZINDOLE]",
    "MEASURED PROPERTY": "Population Pyknosed Nuclei (%)",
    "READING": "7%"
  },
  {
    "MOLECULE": "CC(C)(O)C(=O)N1CCN(c2ccc(C(F)(F)F)c(C3=C(c4c[nH]c5ccccc45)C(=O)NC3=O)c2)CC1",
    "MEASURED PROPERTY": "Population Pyknosed Nuclei (%)",
    "READING": "16%"
  }
]

Qu. Could you tell me which Population Pyknosed Nuclei (%) is on file for CCn1cnc2c(-c3ccc(F)c(-c4ccc(S(=O)(=O)CC)cc4OC)c3)cnnc21 [DARIGABAT] ?
Ans. 25.81%

Qu. Next entry: O=C(NCCO)c1cccc(-c2cc(Nc3ccc(OC(F)(F)F)cc3)ncn2)c1
Ans. 12%

Qu. Same for Cc1ccc(F)cc1C(=O)Nc1ccc(C(=O)N2Cc3cccn3Cc3ccccc32)c(Cl)c1 [LIXIVAPTAN]
Ans. 16%

###

Overview of reported Population Fragmented Nuclei (%) across a group of compounds:
# Test system: HEK-293T
# TEST NAME: Multiplex assay against HEK293T
# Assay type: toxicity, cell-based
# CONDITIONS: human, 24 h, 10 µM, compound concentration 10 uM
Kindly report the value followed by its unit.

[
  {
    "COMPOUND": "C[C@H]1[C@H]2CC[C@H]3[C@@H]4CC=C5C[C@@H](N(C)C)CC[C@]5(C)[C@H]4CC[C@]23CN1C [CONESSINE]",
    "Population Fragmented Nuclei (%)": "9%"
  },
  {
    "COMPOUND": "Br.CS(=O)(=O)Nc1c(O)ccc2c1CCCC2C1=NCCN1 (centres undefined)",
    "Population Fragmented Nuclei (%)": "11%"
  }
]

Qu. Using the record for COc1ccccc1N1CCN(C[C@@H](C(=O)NC(C)(C)C)c2ccccc2)CC1.Cl.Cl , report its Population Fragmented Nuclei (%).
Ans. 8%

Qu. Now give it for COc1cc(C(=O)N(CCCc2ccccc2)Cc2ccc(CC(=O)O)cc2)cc(OC)c1C too.
Ans. 7%
